target: UniProt P03366; assay: HIV-1 reverse transcriptase assay with homopolymeric template/primers; format: biochemical; details: read-out: IC50 HIV-1 RT; poly rA.dT template/primer, [3H]dTTP
attributeMeasured: IC50 (µM)
Express the result in µM but write the number alone.

Answered examples (2):
[[record]]
molecule = "Cc1cn(C[C@H]2CC=CC[C@H]2COC(C(=O)O)P(=O)(O)O)c(=O)[nH]c1=O (relative stereo)"
testedon = "UniProt P03366"
endpointvalue = 425

[[record]]
molecule = "Cc1cn(C[C@H]2C[C@H]2COC(C(=O)O)P(=O)(O)O)c(=O)[nH]c1=O (relative stereo)"
testedon = "UniProt P03366"
endpointvalue = 440


Moving on to the next molecule.
IC50 lookup needed for O=C(O)C(OCCCCn1cc(F)c(=O)[nH]c1=O)P(=O)(O)O (centres unmarked) , thanks.
263
